Reported IC50 values are given for each entry in this list.
molecular target: CDK-2/cycline A (Homo sapiens); assay: CDK-2 enzyme inhibition (histone H1, 32P-ATP)

# MOLECULE, STUDY_SYSTEM, IC50
rows = [
    ("COc1ccncc1NC(=O)c1ccnc2[nH]c(-c3ccc(F)cc3)nc12 [Example 246]", "CDK-2/cycline A (Homo sapiens)", "225 nM"),
    ("Cc1ccncc1NC(=O)c1ccnc2[nH]c(-c3ccc(NCCCCN(C)C)cc3)nc12 [Example 343]", "CDK-2/cycline A (Homo sapiens)", "300 nM"),
    ("Cc1ccncc1NC(=O)c1ccnc2[nH]c(-c3ccc(NCCCN4CCCC4)cc3)nc12 [Example 340]", "CDK-2/cycline A (Homo sapiens)", "400 nM"),
    ("Cc1ccncc1NC(=O)c1c(Br)cnc2[nH]c(-c3cccc(F)c3)nc12 [Example 452]", "CDK-2/cycline A (Homo sapiens)", "350 nM"),
]
